Target: Acetylcholinesterase (Bos taurus, UniProt P23795)
Sequence (P23795 whole entry): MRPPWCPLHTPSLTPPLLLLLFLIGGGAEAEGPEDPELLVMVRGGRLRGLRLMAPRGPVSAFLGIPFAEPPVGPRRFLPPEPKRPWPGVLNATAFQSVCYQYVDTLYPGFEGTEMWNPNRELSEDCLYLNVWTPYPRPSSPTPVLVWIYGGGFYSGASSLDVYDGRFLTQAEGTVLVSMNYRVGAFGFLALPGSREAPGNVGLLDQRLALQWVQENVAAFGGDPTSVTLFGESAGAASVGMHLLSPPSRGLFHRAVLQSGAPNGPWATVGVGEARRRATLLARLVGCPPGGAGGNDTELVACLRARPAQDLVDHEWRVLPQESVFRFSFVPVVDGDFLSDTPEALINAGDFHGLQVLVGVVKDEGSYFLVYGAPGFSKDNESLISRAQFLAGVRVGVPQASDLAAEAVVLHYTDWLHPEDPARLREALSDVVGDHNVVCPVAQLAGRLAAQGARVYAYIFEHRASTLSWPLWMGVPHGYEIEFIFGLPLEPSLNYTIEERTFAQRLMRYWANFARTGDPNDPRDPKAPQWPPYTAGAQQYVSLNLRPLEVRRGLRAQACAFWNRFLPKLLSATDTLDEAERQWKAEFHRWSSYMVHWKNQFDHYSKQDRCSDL
QUANTITY_MEASURED: pIC50
Please note pIC50 is a logarithmic value: minus log10 of concentration in mol/L. Answer with that number alone.

# get_value(readout='pIC50', item= CN(C)C(=O)Oc1cccc2c1cc(C(=O)NCCOCCOCCN1C(=O)c3ccccc3C1=O)c[n+]2C )
8.22
